Give measured MIC for each item. Keep answers brief.
System: Candida albicans ATCC 62376
Experiment: MIC by agar dilution method
Type: cell-based
Conditions: ATCC62376; Table 6c; V Candida albicans ATCC 62376; agar dilution; read-out: MIC V
Give just the number in µg/mL; leave the unit off.

Input line: # return recorded MIC for input CCCCC/C=C/C=C/C(=O)OC[C@H]1O[C@@H](O[C@H]2[C@H](OC(=O)/C=C/C=C/C[C@H](O)/C=C/C=C/CCCCC)[C@@H](O)[C@H](c3c(O)cc(O)cc3CO)O[C@@H]2CO)[C@H](O[C@@H]2O[C@H](CO)[C@H](O)[C@H](O)[C@H]2O)[C@@H](O)[C@H]1O [Example 11]
Output line: 3.12

Input line: State its MIC for this molecule: CCCCC/C=C/C=C/[C@@H](O)C/C=C/C=C/C(=O)O[C@@H]1[C@@H](O)[C@H](c2c(O)cc(O)cc2CO)O[C@H](CO)[C@H]1O[C@@H]1O[C@H](COC(=O)c2ccc(OCCCCCCCC)cc2)[C@H](O)[C@H](O)[C@H]1O[C@@H]1O[C@H](CO)[C@H](O)[C@H](O)[C@H]1O [Example 18]
Output line: 0.78

Input line: Identify measured MIC corresponding to CCCCC/C=C/C=C/[C@@H](O)C/C=C/C=C/C(=O)O[C@@H]1[C@@H](O)[C@H](c2c(O)cc(O)cc2CO)O[C@H](CO)[C@H]1O[C@@H]1O[C@H](COC(=O)Cc2ccc3ccccc3c2)[C@H](O)[C@H](O)[C@H]1O[C@@H]1O[C@H](CO)[C@H](O)[C@H](O)[C@H]1O [Example 22]
Output line: 6.25
